test_system: SL1 wt RNA
method_notes: NMR-based KD estimation, ligand-detected 1D-1H titration
Type: binding, SARS-CoV-2
test_context: ligand 100 μM, SL1 RNA 0 to 200 or 250 μM, 298 K, 600 MHz, pH 6.2; read-out: KD est
Quick reference for pKd among some compounds
// pKd: -log10(molar conc.)

Examples with answers:
CNC(=N)Nc1nc2ccc(OC)cc2s1 3.99
CNC(=O)Nc1nc2ccc(OC)cc2s1 3.87
CC(=O)c1ccc(NC(=O)CN2CCCC2)cc1 3.82

// fetch SL1 wt RNA pKd for COc1ccc2nc(NC(=O)CN(C)C)sc2c1
3.84

Now the compound COc1ccc2nc(NC(=O)CN3CCC[C@H](N)C3)sc2c1
3.66

Continue with COc1ccc(-c2nnc(NC(=O)CN(C)C)s2)cc1OC
3.84

* * *

Listed next: entries and their corresponding 1H,1H CSPs [ppm] C33H5-H6.
System: SL1 RNA
method_notes: RNA-detected NMR binding site mapping (2D-1H,1H-TOCSY and 1D-1H)
Parameters: species or system SARS-CoV-2
test_context: 2D TOCSY; RNA 150 μM, compound 1 mM, 298 K
API: value field is a number in ppm; no unit string.

compound	endpoint_name	recorded_number
CNC(=O)Nc1nc2ccc(OC)cc2s1 [A]	1H,1H CSPs [ppm] C33H5-H6	0.0042
CNC(=O)Nc1nc2c(O)cc(O)cc2s1 [A.13]	1H,1H CSPs [ppm] C33H5-H6	0.0032
COc1ccc2nc(NC(=O)CN3CCC[C@H](N)C3)sc2c1 [A.36]	1H,1H CSPs [ppm] C33H5-H6	0.0057
CNC(=O)Nc1nc2c(OC)cc(OC)cc2s1 [A.11]	1H,1H CSPs [ppm] C33H5-H6	0.0010
COc1ccc(-c2nnc(NC(=O)CN(C)C)s2)cc1OC [A.31]	1H,1H CSPs [ppm] C33H5-H6	0.0067

Requested field: 1H,1H CSPs [ppm] C33H5-H6. Item: CC(=O)c1ccc(NC(=O)CN2CCCC2)cc1 [B]
0.0110

What do you have for COc1ccc2nc(NC(=O)CN(C)C)sc2c1 [A.2] ?
0.0085

One more compound: CNC(=N)Nc1nc2ccc(OC)cc2s1 [A.4]
0.0050

* * *

Tested on: SL1 RNA
method_notes: RNA-detected NMR binding site mapping (2D-1H,1H-TOCSY and 1D-1H)
Parameters: species or system SARS-CoV-2
test_context: 2D TOCSY; RNA 150 μM, compound 1 mM, 298 K
In this section, each of the compounds is paired with its reported 1H,1H CSPs [ppm] U9H5-H6.
# output: bare number, implied unit ppm

compound	1H,1H CSPs [ppm] U9H5-H6, ppm
CNC(=O)Nc1nc2c(O)cc(O)cc2s1 [A.13]	0.0067
COc1ccc2nc(NC(=O)CN3CCC[C@H](N)C3)sc2c1 [A.36]	0.0100
CNC(=O)Nc1nc2c(OC)cc(OC)cc2s1 [A.11]	0.0040
CNC(=O)Nc1nc2ccc(OC)cc2s1 [A]	0.0117
COc1ccc2nc(NC(=O)CN(C)C)sc2c1 [A.2]	0.0247
CNC(=N)Nc1nc2ccc(OC)cc2s1 [A.4]	0.0130
CC(=O)c1ccc(NC(=O)CN2CCCC2)cc1 [B]	0.0063

--- query ---
Quick one: 1H,1H CSPs [ppm] U9H5-H6 of COc1ccc(-c2nnc(NC(=O)CN(C)C)s2)cc1OC [A.31] ?
0.0104

* * *

System: SL1 RNA
method_notes: RNA-detected NMR binding site mapping (2D-1H,1H-TOCSY and 1D-1H)
Parameters: species or system SARS-CoV-2
test_context: 2D TOCSY; RNA 150 μM, compound 1 mM, 298 K
endpoint_name: 1H,1H CSPs [ppm] C21H5-H6 (ppm)
Write it as a number; the unit ppm goes unstated.

Record excerpt, results attached:
CC(=O)c1ccc(NC(=O)CN2CCCC2)cc1 0.0058
CNC(=O)Nc1nc2c(O)cc(O)cc2s1 0.0045
CNC(=N)Nc1nc2ccc(OC)cc2s1 0.0441

What value of 1H,1H CSPs [ppm] C21H5-H6 has been recorded for this entry: COc1ccc2nc(NC(=O)CN(C)C)sc2c1
0.0230

Follow-up item: CNC(=O)Nc1nc2c(OC)cc(OC)cc2s1
0.0061

Another compound to look at: COc1ccc(-c2nnc(NC(=O)CN(C)C)s2)cc1OC
0.0010

Cool, now COc1ccc2nc(NC(=O)CN3CCC[C@H](N)C3)sc2c1
0.0010

Here is the next compound: CNC(=O)Nc1nc2ccc(OC)cc2s1
0.0095

* * *

Test system: SL1 RNA
method_notes: RNA-detected NMR binding site mapping (2D-1H,1H-TOCSY and 1D-1H)
Parameters: species or system SARS-CoV-2
test_context: RNA-detected 1D-1H
endpoint_name: 1H CSPs [ppm] A12H2 (ppm)
Give the quantity in ppm, number only.

Record excerpt, results attached:
CNC(=O)Nc1nc2ccc(OC)cc2s1 0.0041
COc1ccc2nc(NC(=O)CN3CCC[C@H](N)C3)sc2c1 0.0727
CNC(=O)Nc1nc2c(O)cc(O)cc2s1 0.0630
COc1ccc(-c2nnc(NC(=O)CN(C)C)s2)cc1OC 0.0630
COc1ccc2nc(NC(=O)CN(C)C)sc2c1 0.1420

// 1H CSPs [ppm] A12H2 lookup, key: CNC(=O)Nc1nc2c(OC)cc(OC)cc2s1
0.0400

Can you check CNC(=N)Nc1nc2ccc(OC)cc2s1 next?
0.1560

* * *

Reported wLOGSY factor by item:
Test system: SARS-CoV-2 SL1 RNA (SL1 wt)
Assay type: binding
test_context: 10 μM SL1 wt, 200 μM ligand, pH 6.2

Examples with answers:
COc1ccc2nc(NC(=O)CN(C)C)sc2c1 0.72
COc1ccc2nc(NC(=O)CN3CCNCC3)sc2c1 1.54

Provide the documented wLOGSY factor with SARS-CoV-2 SL1 RNA (SL1 wt) as the system for COc1ccc2nc(NC(=O)CN(C)C)[nH]c2c1
0.62

Can you handle CN(C)CC(=O)Nc1nc2ccc([N+](=O)[O-])cc2s1 next?
0.46

* * *

Tested on: SL1 RNA
method_notes: RNA-detected NMR binding site mapping (2D-1H,1H-TOCSY and 1D-1H)
Set-up: species or system SARS-CoV-2
test_context: 2D TOCSY; RNA 150 μM, compound 1 mM, 298 K
endpoint_name: 1H,1H CSPs [ppm] U17H5-H6 (ppm)
// units = ppm; emit number, no label

COc1ccc2nc(NC(=O)CN3CCC[C@H](N)C3)sc2c1 0.0045
COc1ccc2nc(NC(=O)CN(C)C)sc2c1 0.0143
COc1ccc(-c2nnc(NC(=O)CN(C)C)s2)cc1OC 0.0067
CC(=O)c1ccc(NC(=O)CN2CCCC2)cc1 0.0061
CNC(=O)Nc1nc2ccc(OC)cc2s1 0.0100
CNC(=N)Nc1nc2ccc(OC)cc2s1 0.0288
CNC(=O)Nc1nc2c(O)cc(O)cc2s1 0.0051

Could you tell me which 1H,1H CSPs [ppm] U17H5-H6 is on file for CNC(=O)Nc1nc2c(OC)cc(OC)cc2s1 ?
0.0010

* * *

Entries annotated with measured wLOGSY factor
System: SARS-CoV-2 SL1 RNA (SL1 wt)
Format: binding
test_context: 10 μM SL1 wt, 200 μM ligand, pH 6.2

Take a look at these entries with their results.
compound	result
CCN(CCN[C@H]1CCCN(CC(=O)Nc2nc3ccc(OC)cc3s2)C1)c1cccc(O)c1 [A.49]	0.00
COc1ccc(-c2nnc(NC(=O)CN(C)C)s2)cc1OC [A.31]	1.71

Need wLOGSY factor of CNC(=O)Nc1nc2c(O)cc(O)cc2s1 [A.13] , thanks.
0.33

Proceed to COc1cc(OC)c2nc(NC(=O)CN3CCNCC3)sc2c1 [A.57]
0.00

Cool, now CN(C)CC(=O)Nc1nc2ccc(S(C)(=O)=O)cc2s1 [A.32]
0.22

Same for CN(C)CC(=O)Nc1nnc(-c2cc([N+](=O)[O-])cc([N+](=O)[O-])c2)s1 [A.41]
0.59

Consider next the compound CNC(=N)Nc1nc2ccc(O)cc2s1 [A.9] in the same way.
0.66

Next: COc1ccc2nc(NC(=O)CN3CCC[C@H](NCCN(C)c4cccc(O)c4)C3)sc2c1 [A.48]
0.00

* * *

Tested on: SL1 RNA
method_notes: RNA-detected NMR binding site mapping (2D-1H,1H-TOCSY and 1D-1H)
Parameters: species or system SARS-CoV-2
test_context: 2D TOCSY; RNA 150 μM, compound 1 mM, 298 K
endpoint_name: 1H,1H CSPs [ppm] C15H5-H6 (ppm)
// note: answer is a bare numeric in ppm

Known results for compounds:
CNC(=O)Nc1nc2c(O)cc(O)cc2s1 0.0030
CNC(=O)Nc1nc2c(OC)cc(OC)cc2s1 0.0010
COc1ccc(-c2nnc(NC(=O)CN(C)C)s2)cc1OC 0.0032

Entry under review: CC(=O)c1ccc(NC(=O)CN2CCCC2)cc1 . Reported 1H,1H CSPs [ppm] C15H5-H6?
0.0208

Request: CNC(=O)Nc1nc2ccc(OC)cc2s1
0.0081

What would you report for COc1ccc2nc(NC(=O)CN3CCC[C@H](N)C3)sc2c1 ?
0.0010
